# Test system: XF 498 CNS
# Measurement protocol: NCI tumour cell line growth inhibition, 48 h
Give measured TGI for each item. Keep answers brief.

### Prompt What does the record list as TGI for "O=[N+]([O-])c1ccc(-c2noc(-c3ccc(Cl)cc3)c2C2=NCCN2)cc1" ?
### Response > 100 µM

### Prompt # lookup: TGI of COP(=O)(OC)C(NC(=O)C(F)(F)F)(c1ccccc1)C(F)(F)F (stereo not drawn)
### Response > 100 µM

### Prompt Data request, read-out TGI, for "O=[N+]([O-])c1ccccc1S(=O)(=O)c1ccccc1"
### Response > 100 µM

### Prompt Give its TGI value. Item: "Cc1nc2c(o1)C(=Nc1ccccc1)c1ccccc1C2=O"
### Response 12.5 µM

### Prompt Need TGI of COC(=O)C1=C(c2ccc(OC)c(OC)c2)OC(c2cc(OC)c(OC)c(OC)c2)C1 (stereo not drawn) , thanks.
### Response > 100 µM

### Prompt Fill in: TGI of "O=C1C=CC(=C(c2ccc(O)cc2)c2ccc(O)cc2)C=C1" is ___
### Response 24.4 µM

### Prompt // returns reported TGI for input "C#CC[N+](C)(CC#C)CC#C"
### Response > 100 µM

### Prompt Name the reported TGI value associated with the molecule O=[N+]([O-])c1ccc(C2CC(c3ccccc3Cl)=Nc3ccccc3S2=O)cc1 (stereo not drawn)
### Response 18.4 µM

Numbers sourced from PubChem BioAssay (NCI).
